Tested on: six-mutation introduced D-type amino acid dehydrogenase (Asp95Ser, Met155Leu, Val159Gly, Thr174Ile, Arg184Met, His230Asn)
Assay: D-amino acid synthesis activity, six-mutation enzyme
Format: biochemical, Numidum massiliense
Conditions: 5 mM 2-oxo acid, 0.1 mM NADH, 200 mM ammonium chloride, pH 9.5, 50° C.
Method: DNA encoding polypeptide into which six types of mutations (Asp95Ser, Met155Leu, Val159Gly, Thr174Ile, Arg184Met, and His230Asn) were introduced into the amino acid sequence of D-type amino acid dehydrogenase derived from N. massiliense was obtained by synthesis. […] The activity of the enzyme was measured by determining a decrease in absorbance at wavelength of 340 nm of NADPH or NADH produced by the catalytic reaction of the enzyme. […]
Label MET when D-amino acid synthesis activity (specific activity), Six-mutation enzyme, NADH is strictly below 0.1 µmol/min/mg; otherwise label NOT MET.

These solved cases illustrate the format of a correct answer.
| compound | class |
| --- | --- |
| CC(C)CC(=O)C(=O)O | MET |
| CSCCC(=O)C(=O)O | MET |
| CC(=O)C(=O)O | NOT MET |
| O=C(O)CC(=O)C(=O)O | NOT MET |
| CCCCCCC(=O)C(=O)O | NOT MET |
| CCC(=O)C(=O)O | MET |
| O=C(O)C(=O)Cc1ccccc1 | MET |

Field: next compound
Would you kindly verify if D-amino acid synthesis activity (specific activity), Six-mutation enzyme, NADH of CCC(C)C(=O)C(=O)O (stereo not shown) is strictly less than 0.1 µmol/min/mg? MET
